assayText: In vivo pharmacokinetics after oral gavage
condition: mice, 20 mg/kg TMA, oral gavage, overnight fast; plasma TMA; mean ± S.D.

compound: Cc1cc(=O)oc2c1cc(C)c1occ(C)c12 [TMA, 4,6,4′-trimethylangelicin]
resultUnits: nM
Cmax: 186
